system: SW480; test: Cytotoxicity against human SW480 cells by MTT assay; assay type: functional, cell-based
READOUT NAME: IC50
Output should be the measured figure followed by the unit it is expressed in.

Prompt: Supply measured IC50 of `CC(C)[C@@H](C)/C=C/[C@@H](C)[C@H]1CCC2=C3C=CC4=CC(=O)CC[C@]4(C)[C@@]3(O)[C@H](O)C[C@@]21C` in your reply.
Response: 10 µM
